B1: PBXIP1 (parent)
chain: FGEDGIFRHDRLRFRDFVDALEDS

# Variants of: B1
# assay-summary: protein stability index of a GFP-peptide fusion (GPS, HEK-293T) (PSI 1-6); higher = more stable;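 note: lentivirally expressed fusions sorted by FACS into six bins by GFP to DsRed ratio, PSI derived from sequencing read proportions per bin multiplied by bin number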
# particulars: c terminus: a fixed tail appended
property-name: protein stability index
One number for each entry.

Example results:
FGEDGIFRHDRLRFRDPVDALEDS [F17P]	3.44
FGEYGIFRHDRLRFRDFVDALEDS [D4Y]	1.73
FGEDGIFRHDRLRFRDFVDALEFS [D23F]	1.92

Below is a list of variants. For each, state its recorded protein stability index.
1. FGEDGIFRHDRLRFRMFVDALEDS [D16M]
2. FGEDGIFRHYRLRFRDFVDALEDS [D10Y]
3. FGEDGIFRHDRLRFRDFVDALEDR [S24R]
4. FGEDGIFRHDRTRFRDFVDALEDS [L12T]
5. FGEDGIFRHDRLRFRDFNDALEDS [V18N]
6. FGEAGIFRHDRLRFRDFVDALEDS [D4A]

A:
1: 1.78; 2: 1.79; 3: 2.76; 4: 2.44; 5: 3.14; 6: 1.62

Below is a list of variants. For each, state its recorded protein stability index.
1. FGEDGIGRHDRLRFRDFVDALEDS [F7G]
2. FGEDGIFRHDRLRFRDIVDALEDS [F17I]

A:
3.7
3.19

Source listed as the supplement of paper PMC10567573.
